Give pIC50 for every item shown.
target: recombinant human acetylcholinesterase, rHsAChE (Homo sapiens); test: biochemical; conditions: read-out: qAC50 (IC50), rHsAChE
Sequence (P22303 32-614): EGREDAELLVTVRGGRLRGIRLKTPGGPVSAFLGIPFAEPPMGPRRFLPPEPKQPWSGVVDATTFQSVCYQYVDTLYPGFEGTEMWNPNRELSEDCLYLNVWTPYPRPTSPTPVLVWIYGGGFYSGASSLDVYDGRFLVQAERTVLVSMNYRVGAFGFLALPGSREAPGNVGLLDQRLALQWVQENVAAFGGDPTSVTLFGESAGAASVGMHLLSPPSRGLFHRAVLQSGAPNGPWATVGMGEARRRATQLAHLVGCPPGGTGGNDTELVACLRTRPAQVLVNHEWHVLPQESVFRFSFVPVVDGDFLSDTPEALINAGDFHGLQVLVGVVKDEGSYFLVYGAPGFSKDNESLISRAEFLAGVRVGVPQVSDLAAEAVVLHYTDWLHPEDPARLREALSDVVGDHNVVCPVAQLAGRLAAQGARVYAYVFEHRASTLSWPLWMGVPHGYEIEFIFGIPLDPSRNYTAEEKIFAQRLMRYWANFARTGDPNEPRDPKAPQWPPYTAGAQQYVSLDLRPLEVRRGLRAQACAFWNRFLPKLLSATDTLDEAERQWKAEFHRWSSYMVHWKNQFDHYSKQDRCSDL
pIC50: −log10 of the molar value.

Query pIC50 on recombinant human acetylcholinesterase, rHsAChE (Homo sapiens) for `CN(Cc1ccc(C(C)(C)C)cc1)Cc1cccc2ccccc12`
< 4.42

Query pIC50 on recombinant human acetylcholinesterase, rHsAChE (Homo sapiens) for `CCc1nc(-c2cccc(C)c2)c(-c2ccnc(NC(=O)c3ccccc3)c2)s1`
< 5.17

Query pIC50 on recombinant human acetylcholinesterase, rHsAChE (Homo sapiens) for `CC1(C)CCC(C)(C)c2cc(C#Cc3ccc(C(=O)O)cc3)ccc21`
4.84

Query pIC50 on recombinant human acetylcholinesterase, rHsAChE (Homo sapiens) for Clc1ccc(C(c2ccccc2Cl)C(Cl)Cl)cc1 (stereo not shown)
< 4.42

---

molecular target: rSmTAChE (Schistosoma mansoni); assay: biochemical;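 further: mostly 20 µM final but a few compounds at 5 or 10 µM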
Lab note: anything with Inhibition (%) Replicate A below 80% is marked T; values at 80% or higher are marked F.

Please state whether Inhibition (%) Replicate A is below 80% for CCCCCCCCCCCCCCCC[N+](C)(C)C [BRD-K47079459-004-04-6]
T

Please state whether Inhibition (%) Replicate A is below 80% for Cc1cc(C#N)cc(C)c1Oc1nc(Nc2ccc(C#N)cc2)nc(N)c1Br [BRD-K74717603-001-02-2]
T

Please state whether Inhibition (%) Replicate A is below 80% for C[C@H](NC(=O)C[C@H]1C[C@H]2c3cc(NC(=O)Nc4ccc(C(F)(F)F)cc4)ccc3O[C@H]2[C@H](CO)O1)c1ccccc1 [BRD-K17686770-001-01-8]
T

Please state whether Inhibition (%) Replicate A is below 80% for Cc1cc(SCc2sc(-c3ccc(C(F)(F)F)cc3)nc2C)ccc1OCC(=O)O [BRD-K14880289-001-03-0]
T

Please state whether Inhibition (%) Replicate A is below 80% for COc1ccc(NC(=O)Nc2ccc3c(c2)[C@@H]2C[C@H](CC(=O)NCc4ccc5c(c4)OCO5)O[C@H](CO)[C@@H]2O3)cc1 [BRD-K77518191-001-01-1]
F

Please state whether Inhibition (%) Replicate A is below 80% for O=C(C[C@@H]1C=C[C@@H](NC(=O)c2ccncc2)[C@H](CO)O1)Nc1ccc(-c2ccccc2)cc1 [BRD-K45095313-001-01-2]
T

---

Give Inhibition (%) Replicate A for every item shown.
molecular target: rSmTAChE (Schistosoma mansoni, UniProt A0A3Q0KMM5); experiment: biochemical;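 further: mostly 20 µM final but a few compounds at 5 or 10 µM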
Numeric only. Scale: %

Sample `O=C(O)c1ccccc1Nc1ccc(CCc2ccc(Cl)c(Cl)c2)cc1` — what was its Inhibition (%) Replicate A?
83.46

Sample `CC#C[C@@H](CC(=O)O)c1ccc(OCc2cccc(-c3ccc(C(F)(F)F)cc3)c2)cc1` — what was its Inhibition (%) Replicate A?
80.42

Sample `COC(=O)[C@]12CCC(C)(C)C[C@@H]1[C@@H]1C(=O)C=C3[C@]4(C)C=C(C#N)C(=O)C(C)(C)[C@@H]4CC[C@@]3(C)[C@]1(C)CC2` — what was its Inhibition (%) Replicate A?
75.16

Sample `O=C(O)C1(C(=O)O)CCC1.[NH2-].[NH2-].[Pt+2]` — what was its Inhibition (%) Replicate A?
70.08

Sample `CCCC[C@@H](CC)COC(=O)/C=C/c1ccc(OC)cc1` — what was its Inhibition (%) Replicate A?
66.96

Sample `COc1cccc(C#Cc2ccc([C@@H]3[C@@H](C#N)N(C(=O)c4ccccn4)[C@@H]3CO)cc2)c1` — what was its Inhibition (%) Replicate A?
73.10

Sample `CCOC(=O)C1=C(C)NC(C)=C(C(=O)OCC)C1c1ccccc1/C=C/C(=O)OC(C)(C)C` — what was its Inhibition (%) Replicate A?
92.71
